Quick record of Kd values for kinase enzymes (Homo sapiens, UniProt P42345).
measured-property: Kd (µM)

INSERT INTO measurements (compound, measured_property, units_of_measure, reported_value) VALUES
  ('CC(Nc1cccc(F)c1)c1cc(C(=O)NC[C@@H](C)O)cc2ncc(N3CCOCC3)nc12 (single isomer, unassigned) [Compound 338b]', 'Kd', 'µM', 20);

A = CC(Nc1cc(F)cc(F)c1)c1cc(C(=O)NS(N)(=O)=O)cc2ncc(N3CCOCC3)nc12 (single isomer, unassigned) [Compound 243b]
B = C[C@@H]1CN(c2cnc3cc(C(=O)N(C)C)cc(C4CCCN4c4cccc(F)c4)c3n2)CCO1 (single isomer, unassigned)
Lowest Kd? choose A or B Your answer should be the label attached to the chosen record. A
(A: 1.35 µM, B: 21.9 µM)

====

- test-system: kinase enzymes (Homo sapiens, UniProt P42345)
measured-property: Kd

INSERT INTO assay_data (compound, reported_value) VALUES
  ('CC(Oc1cccc(F)c1)c1cc(C(=O)N2CCC[C@H]2CO)cc2ncc(N3CCOCC3)nc12 (single isomer, unassigned) [Compound 87]', '> 30.2 µM');

According to the records, this compound Cc1cccc(N(C)C(C)c2cc(C(=O)N(C)C)cc3ncc(N4CCOCC4)nc23)c1 (single isomer, unassigned) [Compound 128] displays Kd of 21.4 µM

According to the records, this compound O=C(NCCO)c1cc(N2CCC2c2ccc(F)cc2)c2nc(N3CCOCC3)cnc2c1 (single isomer, unassigned) [Compound 391a] displays Kd of 17 µM

According to the records, this compound O=C(NCCO)c1cc(N2CCCC2c2cc(F)cc(F)c2)c2nc(N3CCOCC3)cnc2c1 (single isomer, unassigned) [Compound 244] displays Kd of 20 µM

According to the records, this compound COC(=O)c1cc(C2CCCN2c2cc(F)cc(F)c2)c2nc(N3CCOCC3)cnc2c1 (single isomer, unassigned) [Compound 252] displays Kd of > 30.2 µM

According to the records, this compound CNCCOCCN(C)C(=O)c1cc(C(C)Nc2cc(F)c(F)c(F)c2)c2nc(N3CCOCC3)cnc2c1 (single isomer, unassigned) [Compound 315b] displays Kd of > 30.2 µM

According to the records, this compound CC(Nc1cccc(F)c1)c1cc(C(=O)N2CCOCC2)cc2ncc(N3CCOCC3)nc12 (stereo not shown) [Compound 104] displays Kd of > 30.2 µM

According to the records, this compound O=C(NCCO)c1cc(N2CCC2c2ccc(F)cc2)c2nc(N3CCOCC3)cnc2c1 (stereo not shown) [Compound 391] displays Kd of 24.5 µM

According to the records, this compound O=C(c1cc(C2CCCN2c2cc(F)cc(F)c2)c2nc(N3CCOCC3)cnc2c1)N1CCC1 (single isomer, unassigned) [Compound 37] displays Kd of > 30.2 µM

According to the records, this compound CC(Nc1cc(F)c(F)c(F)c1)c1cc(C(=O)NCC(C)(C)O)cc2ncc(N3CCOCC3)nc12 (single isomer, unassigned) [Compound 292b] displays Kd of > 30.2 µM

According to the records, this compound CNCCNC(=O)c1cc(C(C)Oc2ccc(F)c(F)c2)c2nc(N3CCOCC3)cnc2c1 (single isomer, unassigned) [Compound 344a] displays Kd of > 30.2 µM

According to the records, this compound CC(Nc1ccc(F)c(F)c1)c1cc(C(=O)N[C@H]2CCNC2)cc2ncc(N3CCOCC3)nc12 (single isomer, unassigned) [Compound 374b] displays Kd of > 30.2 µM

According to the records, this compound CC(Nc1ccc(F)c(F)c1)c1cc(C(=O)N2CCN3CCC[C@@H]3C2)cc2ncc(N3CCOCC3)nc12 (stereo partly shown) [Compound 347] displays Kd of > 30.2 µM

====

pKd: −log10 of the molar value.
Quick record of pKd values for UniProt:P42336.
Sequence (P42336 whole entry): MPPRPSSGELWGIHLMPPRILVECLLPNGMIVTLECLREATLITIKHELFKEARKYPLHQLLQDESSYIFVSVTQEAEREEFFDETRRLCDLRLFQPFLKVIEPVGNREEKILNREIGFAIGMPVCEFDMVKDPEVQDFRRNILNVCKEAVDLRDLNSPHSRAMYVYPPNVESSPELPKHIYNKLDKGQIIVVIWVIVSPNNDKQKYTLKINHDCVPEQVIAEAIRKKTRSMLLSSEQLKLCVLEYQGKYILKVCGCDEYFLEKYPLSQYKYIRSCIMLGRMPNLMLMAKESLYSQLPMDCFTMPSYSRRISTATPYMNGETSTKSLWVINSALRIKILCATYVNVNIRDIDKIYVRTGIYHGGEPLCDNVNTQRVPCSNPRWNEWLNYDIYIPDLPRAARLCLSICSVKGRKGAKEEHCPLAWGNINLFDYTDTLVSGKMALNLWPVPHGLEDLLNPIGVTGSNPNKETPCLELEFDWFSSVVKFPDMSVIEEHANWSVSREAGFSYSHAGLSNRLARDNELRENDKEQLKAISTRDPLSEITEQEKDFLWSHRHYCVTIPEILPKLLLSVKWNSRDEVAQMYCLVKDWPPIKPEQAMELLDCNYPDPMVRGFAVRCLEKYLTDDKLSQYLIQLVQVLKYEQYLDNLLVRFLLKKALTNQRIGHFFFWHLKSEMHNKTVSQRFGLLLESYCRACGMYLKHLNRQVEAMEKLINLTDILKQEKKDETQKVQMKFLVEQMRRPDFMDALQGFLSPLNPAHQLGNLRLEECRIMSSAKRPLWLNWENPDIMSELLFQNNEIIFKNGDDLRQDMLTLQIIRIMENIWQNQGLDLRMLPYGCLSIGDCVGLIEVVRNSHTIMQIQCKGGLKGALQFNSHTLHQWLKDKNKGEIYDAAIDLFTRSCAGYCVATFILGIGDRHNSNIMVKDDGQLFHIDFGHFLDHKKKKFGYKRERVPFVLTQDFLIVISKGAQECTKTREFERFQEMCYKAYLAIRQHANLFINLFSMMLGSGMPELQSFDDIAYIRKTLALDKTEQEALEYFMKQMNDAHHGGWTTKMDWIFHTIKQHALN
measured-property: pKd

INSERT INTO results (molecule, measured_property, reported_value) VALUES
  ('CC(Nc1ccc(F)c(F)c1)c1cc(C(=O)N2C[C@@H](C)N[C@@H](C)C2)cc2ncc(N3CCOCC3)nc12 (single isomer, unassigned) [Compound 357a]', 'pKd', 4.64);

a = Cc1ccc(F)cc1CNc1cc(C(=O)NCCO)cc2ncc(N3CCOCC3)nc12
b = CC(Oc1cc(F)cc(F)c1)c1cc(C(=O)NCCO)cc2ncc(N3CCOCC3)nc12 (stereo not shown)
Lowest pKd? choose a or b Your answer should be the label attached to the chosen record. b

A = CC(Nc1cc(F)cc(Cl)c1)c1cc(C(=O)N2CCOCC2)cc2ncc(N3CCOCC3)nc12 (stereo not shown)
B = CC(Oc1cccc(F)c1)c1cc(C(=O)N2CCC[C@H]2CO)cc2ncc(N3CCOCC3)nc12 (single isomer, unassigned)
Between the two listed entries A and B , which has its pKd at the higher number? Your answer should be the label attached to the chosen record. A

====

Quick record of Kd values for kinase enzymes (Homo sapiens).
measured-property: Kd (µM)

I = CN(C)C(=O)c1cc(C2CCCN2c2ccccc2)c2nc(N3CCOCC3)cnc2c1 (stereo not drawn) [Compound 27]
II = CNCCOCCN(C)C(=O)c1cc(C(C)Nc2ccc(F)c(F)c2)c2nc(N3CCOCC3)cnc2c1 (single isomer, unassigned) [Compound 345a]
III = CC(Nc1cc(F)c(F)c(F)c1)c1cc(C(=O)N(C)C2CCNC2)cc2ncc(N3CCOCC3)nc12 (single isomer, unassigned) [Compound 296a]
Order the entries above by descending Kd. List each label, following the requested order. II, III, I

====

- test-system: PI3Kβ (Homo sapiens, UniProt P42338)
- Construct: purchased DiscoveRx Corporation, San Diego (contract service, KINOMEscan)
- Sequence (P42338 whole entry): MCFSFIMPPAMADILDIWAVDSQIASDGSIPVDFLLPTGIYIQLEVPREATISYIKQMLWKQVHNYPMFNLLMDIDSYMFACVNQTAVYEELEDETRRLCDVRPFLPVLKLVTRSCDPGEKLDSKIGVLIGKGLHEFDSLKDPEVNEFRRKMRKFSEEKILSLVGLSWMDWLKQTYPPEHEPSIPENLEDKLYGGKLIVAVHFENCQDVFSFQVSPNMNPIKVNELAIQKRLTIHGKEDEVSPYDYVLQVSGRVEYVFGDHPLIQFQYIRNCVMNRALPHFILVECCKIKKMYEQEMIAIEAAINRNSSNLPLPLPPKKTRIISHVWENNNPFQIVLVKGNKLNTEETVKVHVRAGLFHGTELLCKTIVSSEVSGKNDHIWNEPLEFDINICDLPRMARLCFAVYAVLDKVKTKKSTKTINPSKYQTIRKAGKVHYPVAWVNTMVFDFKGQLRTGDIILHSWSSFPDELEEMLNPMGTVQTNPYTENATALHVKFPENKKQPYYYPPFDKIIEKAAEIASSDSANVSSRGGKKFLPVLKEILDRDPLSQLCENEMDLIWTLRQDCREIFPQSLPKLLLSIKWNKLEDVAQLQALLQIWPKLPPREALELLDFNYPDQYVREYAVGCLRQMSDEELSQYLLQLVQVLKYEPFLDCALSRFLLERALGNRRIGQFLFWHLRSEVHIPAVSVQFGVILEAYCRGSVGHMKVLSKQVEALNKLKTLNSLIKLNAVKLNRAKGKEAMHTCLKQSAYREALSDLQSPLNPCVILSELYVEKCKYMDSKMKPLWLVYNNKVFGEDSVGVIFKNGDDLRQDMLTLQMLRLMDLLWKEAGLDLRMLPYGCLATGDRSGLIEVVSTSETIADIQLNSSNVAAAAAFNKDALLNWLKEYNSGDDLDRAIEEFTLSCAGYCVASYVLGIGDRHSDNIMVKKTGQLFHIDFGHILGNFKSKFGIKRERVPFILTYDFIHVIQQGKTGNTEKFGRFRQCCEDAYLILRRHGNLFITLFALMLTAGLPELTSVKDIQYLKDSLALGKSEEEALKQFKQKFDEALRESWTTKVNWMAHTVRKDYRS
- experiment-description: Enzyme binding assay (KINOMEscan, DiscoveRx)
- experimental-context: PIK3Cβ_h, read-out: Kd PIK3Cβ_h
measured-property: Kd (µM)

Consider the worked cases shown below.
INSERT INTO assay_data (compound, reported_value) VALUES
  ('CN(C)CCNC(=O)c1cc(NCc2cc(F)cc(F)c2)c2nc(N3CCOCC3)cnc2c1 [Compound 384]', 0.001),
  ('CN(C)C(=O)c1cc(N2CCC2c2ccc(F)cc2)c2nc(N3CCOCC3)cnc2c1 (single isomer, unassigned) [Compound 397b]', 0.025),
  ('CC(Oc1cc(F)cc(F)c1)c1cc(-c2cnc[nH]2)cc2ncc(N3CCOCC3)nc12 (single isomer, unassigned) [Compound 21]', 0.063);

1 = CC(Nc1ccc(F)c(F)c1)c1cc(C(=O)NCCCO)cc2ncc(N3CCOCC3)nc12 (single isomer, unassigned) [Compound 280a]
2 = CC(C)NCCNC(=O)c1cc(C(C)Nc2cccc(F)c2)c2nc(N3CCOCC3)cnc2c1 (stereo not shown) [Compound 226]
3 = CC(Nc1cccc(F)c1)c1cc(C(=O)N(C)C)cc2ncc(N3CCOCC3)nc12 (stereo not shown) [Compound 85]
4 = CC(Nc1cc(F)cc(F)c1)c1cc(C(=O)N(C)C)cc2ncc(N3CCOCC3)nc12 (single isomer, unassigned) [Compound 13]
5 = Cc1c(CNc2cc(C(=O)N(C)C)cc3ncc(N4CCOCC4)nc23)cccc1C(F)(F)F [Compound 399]
// sort entries: Kd, high to low List each label, following the requested order. 4, 5, 1, 2, 3
(4: 0.182 µM, 5: 0.045 µM, 1: 0.012 µM, 2: 0.001 µM, 3: 0.0003 µM)

I = Cc1cccc(NC(C)c2cc(C(=O)N3CCOCC3)cc3ncc(N4CCOCC4)nc23)c1 (stereo not shown) [Compound 120]
II = CN(C)C(=O)c1cc(NCc2ccc(F)cc2)c2nc(N3CCOCC3)cnc2c1 [Compound 400]
Lowest Kd? choose I or II Your answer should be the label attached to the chosen record. I
(I: 0.014 µM, II: 0.024 µM)

P = CC(Nc1cccc(C#N)c1)c1cc(C(=O)N2CCOCC2)cc2ncc(N3CCOCC3)nc12 (stereo not shown) [Compound 131]
Q = CC(C)NCCN(C)C(=O)c1cc(N(C)Cc2cc(F)cc(F)c2)c2nc(N3CCOCC3)cnc2c1 [Compound 390]
Lowest Kd? choose P or Q Your answer should be the label attached to the chosen record. P
(P: 0.011 µM, Q: 0.078 µM)

A = CC(Nc1ccc(F)c(F)c1)c1cc(C(=O)NCCCO)cc2ncc(N3CCOCC3)nc12 (single isomer, unassigned) [Compound 280b]
B = CC(Nc1ccc(F)c(F)c1)c1cc(C(=O)NCC2CCCN2)cc2ncc(N3CCOCC3)nc12 (single isomer, unassigned) [Compound 329b]
C = CC1CN(C(=O)c2cc(C(C)Nc3ccc(F)c(F)c3)c3nc(N4CCOCC4)cnc3c2)CC(C)N1 (stereo not shown) [Compound 357b]
D = COc1cccc(NC(C)c2cc(C(=O)N3CCOCC3)cc3ncc(N4CCOCC4)nc23)c1 (stereo not shown) [Compound 121]
// sort entries: Kd, high to low List each label, following the requested order. A, B, D, C
(A: 0.813 µM, B: 0.042 µM, D: 0.01 µM, C: 0.001 µM)

I = CNCC1CCN(C(=O)c2cc(C(C)Nc3cc(F)cc(F)c3)c3nc(N4CCOCC4)cnc3c2)CC1 (stereo not shown) [Compound 176]
II = CNCCOCCN(C)C(=O)c1cc(C(C)Nc2cc(F)c(F)c(F)c2)c2nc(N3CCOCC3)cnc2c1 (single isomer, unassigned) [Compound 315a]
Lowest Kd? choose I or II Your answer should be the label attached to the chosen record. I
(I: 0.001 µM, II: 2.24 µM)

a = CC(Nc1cc(F)cc(F)c1)c1cc(C(=O)NS(N)(=O)=O)cc2ncc(N3CCOCC3)nc12 (stereo not shown) [Compound 243]
b = CC(Oc1cc(F)cc(F)c1)c1cc(C(=O)N2CCC2)cc2ncc(N3CCO[C@H](CO)C3)nc12 (mixture of isomers) [Compound 81]
c = OC[C@@H]1CCCN1Cc1cc(C2CCCN2c2cc(F)cc(F)c2)c2nc(N3CCOCC3)cnc2c1 (single isomer, unassigned) [Compound 77]
d = CC(Nc1cc(F)cc(F)c1)c1cc(C(=O)NCCOCCN)cc2ncc(N3CCOCC3)nc12 (stereo not shown) [Compound 149]
e = CC(c1cc(C(=O)N(C)C)cc2ncc(N3CCOCC3)nc12)N(C)c1cccc(Cl)c1 (stereo not shown) [Compound 141]
// sort entries: Kd, high to low List each label, following the requested order. b, e, d, a, c
(b: 0.03 µM, e: 0.006 µM, d: 0.002 µM, a: 0.001 µM, c: 0.0003 µM)

I = CN(C)C(=O)c1cc(C2CCCN2c2ccc(F)cc2)c2nc(N3CCOCC3)cnc2c1 (stereo not shown) [Compound 42]
II = CC(Oc1cccc(F)c1)c1cc(C(=O)O)cc2ncc(N3CCOCC3)nc12 (single isomer, unassigned) [Compound 257b]
III = OCCCNCc1cc(C2CCCN2c2cc(F)cc(F)c2)c2nc(N3CCOCC3)cnc2c1 (single isomer, unassigned) [Compound 102]
Sort the compounds on Kd; start with the lowest figure. List each label, following the requested order. III, I, II
(III: 0.0002 µM, I: 0.001 µM, II: 0.022 µM)
